Data origin: patent US11034725B2

target: UniProt Q8NBP7; experiment: PCSK9/EGF(A) TR-FRET binding assay; conditions: TR-FRET; Table 8E, additional compounds; read-out: PCSK9/EGF(A) IC50
pIC50: −log10 of the molar value. Square brackets hold non-standard residues; d marks the D form. Peptide text beside a SMILES is read from it. * marks the point of attachment. Trp(6-F) = N[C@@H](Cc1c[nH]c2cc(F)ccc12)C(=O)O; hArg = N=C(N)NCCCC[C@H](N)C(=O)O; X13 = O=C(CCN1CCS(=O)(=O)CC1)*; X28 = COc1cc(OCCCC(=O)*)ccc1CO; X6 = O=C(Cn1ccc(=O)[nH]c1=O)*; X8 = O=C(c1ccc(N2CCOCC2)nc1)*; X38 = O=C(CC1CCS(=O)(=O)C1)*; X12 = O=C(CCCc1ccc(F)cc1)*; X35 = Nc1ccc(CCC(=O)*)cn1; Pentanoyl = CCCCC(=O)*
Catalogue of compounds with associated pIC50

>  <compound>
CC[C@H](C)[C@H](NC(=O)[C@H](CCCNC(=N)N)NC(=O)[C@@H](NC(=O)[C@H](CC(C)C)NC(=O)[C@H](CC(N)=O)NC(=O)[C@H](Cc1c[nH]c2ccccc12)NC(=O)CC1CCS(=O)(=O)C1)C(C)C)C(=O)NCC(=O)N[C@@H](CC(C)C)C(=O)N[C@@H](CC(C)C)C(=O)N[C@@H](CCCNC(=N)N)C(N)=O (some centres unmarked) [Compound 139] (X38-WNLVRIGLLR-NH2)

>  <pIC50>
≤ 4.30

$$$$
>  <compound>
CCCCC(=O)N[C@@H](Cc1c[nH]c2ccccc12)C(=O)N[C@@H](CC(N)=O)C(=O)N[C@@H](CC(C)C)C(=O)N[C@H](C(=O)N[C@@H](CCCCNC(=N)N)C(=O)N[C@H](C(=O)NCC(=O)N[C@@H](CC(C)C)C(=O)N[C@@H](CC(C)C)C(=O)N[C@@H](CCCNC(=N)N)C(=O)O)[C@@H](C)CC)C(C)C [Compound 195, n-BuC(O)-WNLV(homoR)IGLLR] (Pentanoyl-WNLV[hArg]IGLLR-OH)

>  <pIC50>
4.66

$$$$
>  <compound>
CCCCC(=O)N[C@@H](Cc1c[nH]c2ccccc12)C(=O)N[C@@H](CC(N)=O)C(=O)N[C@@H](CC(C)C)C(=O)N[C@H](C(=O)N[C@@H](CCCCNC(=N)N)C(=O)N[C@H](C(=O)NCC(=O)N[C@@H](CC(C)C)C(=O)N[C@@H](CC(C)C)C(=O)N[C@@H](CCCNC(=N)N)C(N)=O)[C@@H](C)CC)C(C)C [Compound 191, n-BuC(O)-WNLV(homoR)IGLLR-NH2] (Pentanoyl-WNLV[hArg]IGLLR-NH2)

>  <pIC50>
≤ 4.30

$$$$
>  <compound>
CC[C@H](C)[C@H](NC(=O)[C@H](CCCNC(=N)N)NC(=O)[C@@H](NC(=O)[C@H](CC(C)C)NC(=O)[C@H](CC(N)=O)NC(=O)[C@H](Cc1c[nH]c2ccccc12)NC(=O)CCN1CCS(=O)(=O)CC1)C(C)C)C(=O)NCC(=O)N[C@@H](CC(C)C)C(=O)N[C@@H](CC(C)C)C(=O)N[C@@H](CCCNC(=N)N)C(N)=O [Compound 126] (X13-WNLVRIGLLR-NH2)

>  <pIC50>
≤ 4.30

$$$$
>  <compound>
CC[C@H](C)[C@H](NC(=O)[C@H](CCCNC(=N)N)NC(=O)[C@@H](NC(=O)[C@H](CC(C)C)NC(=O)[C@H](CC(N)=O)NC(=O)[C@H](Cc1c[nH]c2ccccc12)NC(=O)c1ccc(N2CCOCC2)nc1)C(C)C)C(=O)NCC(=O)N[C@@H](CC(C)C)C(=O)N[C@H](C(=O)N[C@@H](CCCNC(=N)N)C(N)=O)[C@@H](C)O [Compound 172] (X8-WNLVRIGLTR-NH2)

>  <pIC50>
≤ 4.30

$$$$
>  <compound>
CCCCC(=O)N[C@@H](Cc1c[nH]c2cc(F)ccc12)C(=O)N[C@@H](CC(N)=O)C(=O)N[C@@H](CC(C)C)C(=O)N[C@H](C(=O)N[C@@H](CCCNC(=N)N)C(=O)N[C@H](C(=O)NCC(=O)N[C@@H](CC(C)C)C(=O)N[C@H](C(=O)N[C@@H](CCCNC(=N)N)C(N)=O)[C@@H](C)O)[C@@H](C)CC)C(C)C [Compound 174] (Pentanoyl-[Trp(6-F)]NLVRIGLTR-NH2)

>  <pIC50>
≤ 4.30

$$$$
>  <compound>
CC[C@H](C)[C@H](NC(=O)[C@H](CCCCNC(=N)N)NC(=O)[C@@H](NC(=O)[C@H](CC(C)C)NC(=O)[C@H](CC(N)=O)NC(=O)[C@H](Cc1c[nH]c2ccccc12)NC(=O)CCCc1ccc(F)cc1)C(C)C)C(=O)NCC(=O)N[C@@H](CC(C)C)C(=O)N[C@@H](CC(C)C)C(=O)N[C@@H](CCCNC(=N)N)C(N)=O [Compound 196] (X12-WNLV[hArg]IGLLR-NH2)

>  <pIC50>
5.14

$$$$
>  <compound>
CC[C@H](C)[C@H](NC(=O)[C@H](CCCNC(=N)N)NC(=O)[C@@H](NC(=O)[C@H](CC(C)C)NC(=O)[C@H](CC(N)=O)NC(=O)[C@H](Cc1c[nH]c2ccccc12)NC(=O)Cn1ccc(=O)[nH]c1=O)C(C)C)C(=O)NCC(=O)N[C@@H](CC(C)C)C(=O)N[C@@H](CC(C)C)C(=O)N[C@@H](CCCNC(=N)N)C(N)=O [Compound 143] (X6-WNLVRIGLLR-NH2)

>  <pIC50>
≤ 4.30

$$$$
>  <compound>
CC[C@H](C)[C@H](NC(=O)[C@H](CCCCNC(=N)N)NC(=O)[C@@H](NC(=O)[C@H](CC(C)C)NC(=O)[C@H](CC(N)=O)NC(=O)[C@H](Cc1c[nH]c2ccccc12)NC(=O)CCCOc1ccc(CO)c(OC)c1)C(C)C)C(=O)NCC(=O)N[C@@H](CC(C)C)C(=O)N[C@@H](CC(C)C)C(=O)N[C@@H](CCCNC(=N)N)C(N)=O [Compound 204] (X28-WNLV[hArg]IGLLR-NH2)

>  <pIC50>
5.44

$$$$
>  <compound>
CC[C@H](C)[C@H](NC(=O)[C@H](CCCNC(=N)N)NC(=O)[C@@H](NC(=O)[C@H](CC(C)C)NC(=O)[C@H](CC(N)=O)NC(=O)[C@H](Cc1c[nH]c2ccccc12)NC(=O)CCc1ccc(N)nc1)C(C)C)C(=O)NCC(=O)N[C@@H](CC(C)C)C(=O)N[C@H](C(=O)N[C@@H](CCCNC(=N)N)C(N)=O)[C@@H](C)O [Compound 171] (X35-WNLVRIGLTR-NH2)

>  <pIC50>
≤ 4.30

$$$$
>  <compound>
CC[C@H](C)[C@H](NC(=O)[C@H](CCCCNC(=N)N)NC(=O)[C@@H](NC(=O)[C@H](CC(C)C)NC(=O)[C@H](CC(N)=O)NC(=O)[C@@H](N)Cc1c[nH]c2ccccc12)C(C)C)C(=O)NCC(=O)N[C@@H](CC(C)C)C(=O)N[C@@H](CC(C)C)C(=O)N[C@@H](CCC(N)=O)C(N)=O [Compound 237, WNLV(homoR)IGLLQ-NH2] (H-WNLV[hArg]IGLLQ-NH2)

>  <pIC50>
5.06

$$$$

----------
Catalogue of compounds with associated IC50
molecular target: PCSK9 (Homo sapiens); experiment: PCSK9/EGF(A) TR-FRET binding assay; details: TR-FRET; Table 8D, disulfide-cyclized extension peptides; read-out: PCSK9/EGF(A) IC50
Sequence (Q8NBP7 153-692): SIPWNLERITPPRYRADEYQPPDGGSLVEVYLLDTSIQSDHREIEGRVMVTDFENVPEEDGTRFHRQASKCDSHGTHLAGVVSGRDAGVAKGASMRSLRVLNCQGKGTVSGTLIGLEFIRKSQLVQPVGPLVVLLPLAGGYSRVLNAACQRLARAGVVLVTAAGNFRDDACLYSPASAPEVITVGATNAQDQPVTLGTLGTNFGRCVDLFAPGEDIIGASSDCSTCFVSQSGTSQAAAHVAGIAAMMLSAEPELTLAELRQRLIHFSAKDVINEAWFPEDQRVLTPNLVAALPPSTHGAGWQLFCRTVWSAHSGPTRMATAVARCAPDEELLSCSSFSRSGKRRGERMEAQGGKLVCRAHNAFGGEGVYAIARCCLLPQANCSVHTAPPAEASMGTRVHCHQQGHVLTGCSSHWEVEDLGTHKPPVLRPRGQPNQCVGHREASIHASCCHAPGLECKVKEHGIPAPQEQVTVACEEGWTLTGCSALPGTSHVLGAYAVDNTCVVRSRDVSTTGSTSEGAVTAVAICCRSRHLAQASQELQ
Sequence (Q8NBP7 31-152 partner limits assumed): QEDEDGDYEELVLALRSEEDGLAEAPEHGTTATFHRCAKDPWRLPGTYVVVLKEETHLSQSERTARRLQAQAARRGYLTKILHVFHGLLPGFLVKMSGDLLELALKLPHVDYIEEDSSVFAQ
Bridge positions count the residues as written; N and C are the ends. Square brackets hold non-standard residues; d marks the D form. Peptide text beside a SMILES is read from it.

>  <compound>
CC[C@H](C)[C@@H]1NC(=O)[C@H](CCCNC(=N)N)NC(=O)[C@H](CCC(N)=O)NC(=O)[C@H](CC(C)C)NC(=O)[C@H](CC(N)=O)NC(=O)[C@H](Cc2c[nH]c3ccccc23)NC(=O)[C@@H]2CCCN2C(=O)[C@H](CC(C)C)NC(=O)[C@H](CCCNC(=N)N)NC(=O)[C@@H](NC(C)=O)CSSC[C@@H](C(N)=O)NC(=O)[C@@H]2CCCN2C(=O)[C@@H](CC(C)C)NC(=O)CNC1=O [Compound 100] (Ac-CRLPWNLQRIG[dL]PC-NH2; disulfide 1-14)

>  <IC50>
> 50 µM

$$$$
>  <compound>
CC[C@H](C)[C@@H]1NC(=O)[C@H](CCCNC(=N)N)NC(=O)[C@H](CCC(N)=O)NC(=O)[C@@H](CC(C)C)NC(=O)[C@H](CC(N)=O)NC(=O)[C@H](Cc2c[nH]c3ccccc23)NC(=O)[C@@H]2CCCN2C(=O)[C@H](CC(C)C)NC(=O)[C@H](CCCNC(=N)N)NC(=O)[C@@H](NC(C)=O)CSSC[C@@H](C(N)=O)NC(=O)[C@@H]2CCCN2C(=O)[C@H](CC(C)C)NC(=O)CNC1=O [Compound 104, Ac-CRLPWNlQRIGLPC-NH2] (Ac-CRLPWN[dL]QRIGLPC-NH2; disulfide 1-14)

>  <IC50>
> 50 µM

$$$$
